- TEST DETAILS: Metabolic stability in mouse liver microsomes assessed as half life at 1 uM preincubated for 5 mins followed by NADPH addition and measured upto 60 min by LC-MS/MS analysis
- Assay type: ADME, Microsome
- MEASUREMENT PARAMETERS: time < 65 min
Each entry below carries its recorded half-life at 1 µM.

[
  {
    "COMPOUND": "CN(C)c1cc(F)nc(N2[C@H]3CC[C@@H]2c2cnc(-c4ncccn4)nc2C3)c1",
    "READING QUALIFIER": "=",
    "half-life at 1 µM (h)": 1.63
  },
  {
    "COMPOUND": "CS(=O)(=O)N1CCN(c2cc(F)nc(N3[C@@H]4CCC[C@H]3c3cnc(-c5ncccn5)nc3C4)c2)CC1 (single isomer, unassigned)",
    "READING QUALIFIER": ">",
    "half-life at 1 µM (h)": 3.33
  },
  {
    "COMPOUND": "COC1CN(c2cc(F)nc(N3[C@@H]4CCC[C@H]3c3cnc(-c5ncccn5)nc3C4)c2)C1 (single isomer, unassigned)",
    "READING QUALIFIER": ">",
    "half-life at 1 µM (h)": 3.33
  },
  {
    "COMPOUND": "CN(C)c1cc(F)nc(N2[C@@H]3CCC[C@H]2c2cnc(-c4ncccn4)nc2C3)c1 (single isomer, unassigned)",
    "READING QUALIFIER": "=",
    "half-life at 1 µM (h)": 1.12
  }
]

These entries and their values trace back to ChEMBL document CHEMBL5370548.
